measurementLabel: logP
Quick one: just the number, no unit, thanks!

## Input May I ask what logP has been recorded for "CC(=O)Nc1cc(C(C)(C)C)c(O)cc1C" ?
## Output 2.18

## Input May I ask what logP has been recorded for "Cc1ccccc1C(=N)c1ccccc1C" ?
## Output 3.31

----------
assay: method code SF, from ISBN: 9780815518525; settings: pH 7.0
measurementLabel: logD
Quick one: just the number, no unit, thanks!

## Input May I ask what logD has been recorded for "CNC(=O)N(C)c1nnc(C(C)(C)C)s1" ?
## Output 1.79

----------
I'd be grateful if you could share measured logP for these entries.
test: method code SF-AS, from DOI: 10.1023/a:1021720128725
Quick one: just the number, no unit, thanks!

## Input May I ask what logP has been recorded for Cc1cn2c(=O)c3c(nc2[nH]1)N(COCCO)C(Br)N3 (stereo not drawn) ?
## Output -0.11

## Input May I ask what logP has been recorded for "CC(C)(C)c1cn2c(=O)c3ncn(COCCO)c3nc2[nH]1" ?
## Output 0.62

## Input May I ask what logP has been recorded for "Nc1nc2c(ncn2COCCO)c(=O)[nH]1" ?
## Output -1.44

----------
measurementLabel: logP

## Input May I ask what logP has been recorded for "Cc1ccccc1/C=C/[N+](=O)[O-]" ?
## Output 2.63

----------
measurementLabel: logP
Quick one: just the number, no unit, thanks!

## Input May I ask what logP has been recorded for "CSc1nc(NC(C)C)nc(NC(C)C)n1" ?
## Output 3.36

----------
measurementLabel: logP

## Input May I ask what logP has been recorded for "Oc1ccccc1" ?
## Output 1.6

----------
assay: method code SF, from ISBN: 9780948404450
measurementLabel: logP
Quick one: just the number, no unit, thanks!

## Input May I ask what logP has been recorded for CCS(=O)c1sc(C#N)c(Cl)c1C#N (stereo unspecified) ?
## Output 2.54

----------
I'd be grateful if you could share measured logP for these entries.
Quick one: just the number, no unit, thanks!

## Input May I ask what logP has been recorded for "OCCOCCOCCOCCO" ?
## Output -1.38

## Input May I ask what logP has been recorded for "c1ccc(Oc2cccc(-c3ccccc3)c2)cc1" ?
## Output 5.55

## Input May I ask what logP has been recorded for "OCCN(CCO)CCO" ?
## Output -1.32

## Input May I ask what logP has been recorded for "CCCCNCCCC" ?
## Output 2.68

----------
test: method code SF-HPLC, from DOI: 10.13422/j.cnki.syfjx.2013.03.051
measurementLabel: logP
Quick one: just the number, no unit, thanks!

## Input May I ask what logP has been recorded for O=C1C=CC[C@@H]2[C@H]3CCC[N+]4([O-])CCC[C@@H](CN12)[C@@H]34 (stereo partly specified) ?
## Output -0.44

----------
I'd be grateful if you could share measured logP for these entries.
assay: method code SF-HPLC, from DOI: 10.1021/js980008v, PMID: 9758683
Quick one: just the number, no unit, thanks!

## Input May I ask what logP has been recorded for "O=C1NC(=O)C(c2ccccc2)(c2ccccc2)N1" ?
## Output 2.21

## Input May I ask what logP has been recorded for "CCCC(=O)OCN1C(=O)NC(c2ccccc2)(c2ccccc2)C1=O" ?
## Output 3.9

## Input May I ask what logP has been recorded for "CC(=O)OCN1C(=O)NC(c2ccccc2)(c2ccccc2)C1=O" ?
## Output 2.8

## Input May I ask what logP has been recorded for "O=C1NC(c2ccccc2)(c2ccccc2)C(=O)N1CO" ?
## Output 2.23

Provenance of the data: the SangsterLogP compilation
